- Assayed target: human bradykinin B2 receptor (hB2R) (Homo sapiens)
- Sequence (P30411 1-391): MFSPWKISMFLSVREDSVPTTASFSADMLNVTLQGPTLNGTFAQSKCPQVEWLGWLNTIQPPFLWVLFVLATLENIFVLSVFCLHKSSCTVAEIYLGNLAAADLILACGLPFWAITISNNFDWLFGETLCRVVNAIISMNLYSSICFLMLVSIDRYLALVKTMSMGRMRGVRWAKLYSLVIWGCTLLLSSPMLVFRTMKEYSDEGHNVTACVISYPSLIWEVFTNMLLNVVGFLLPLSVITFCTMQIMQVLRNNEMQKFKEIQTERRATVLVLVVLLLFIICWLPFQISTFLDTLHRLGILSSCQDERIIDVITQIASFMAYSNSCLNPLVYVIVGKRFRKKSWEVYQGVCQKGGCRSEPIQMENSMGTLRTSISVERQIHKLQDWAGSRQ
- Assay text: human bradykinin B2 receptor calcium mobilization (hB2R-CaM) assay
- Conditions: antagonism of bradykinin (EC80) induced calcium mobilization, B2 Bradykinin Receptor Stable Cell Line HTS041C, 25 min pre-incubation; read-out: IC50-value towards human bradykinin B2 receptor (hB2R)
Result type: IC50

Per the record, Cc1cc(-c2ncnn2C)c2cccc(OCc3c(Cl)cc(F)cc3[C@H](C)N3CC[C@@H](OC(F)F)C3=O)c2n1 [compound 88] has IC50 of ≤ 0.01 µM

Per the record, Cc1cc(-n2cc(F)cn2)c2cccc(OCc3c(Cl)cc(F)cc3[C@H](C)N3CC[C@H](O)C3=O)c2n1 [compound 28] has IC50 of 0.101 to 0.5 µM

Per the record, Cc1cc(-n2cc(F)cn2)c2cccc(OCc3c(Cl)cc(F)cc3[C@H](C)N3CC(C)CC3=O)c2n1 (stereo partly shown) [compound 62] has IC50 of 0.011 to 0.1 µM

Per the record, Cc1cc(-c2ncnn2C)c2cccc(OCc3c(Cl)cc(F)cc3[C@H](C)N3C[C@@H](OC(F)F)CC3=O)c2n1 [Compound No. 6] has IC50 of 0.011 to 0.1 µM
